assay: Stability in human MG63 cells assessed as parent compound remaining at 1 uM after 24 hrs by HPLC analysis; assay type: ADME, cell-based, MG-63; conditions: read-out: Stability
readout.label: remaining at 24 h, 1 µM (%)
Give bare numbers, in %.

1) C=C1/C(=C\C=C2/CCC[C@]3(C)[C@@H]([C@H](C)CC#C[C@H](O)C45CC6CC(CC(C6)C4)C5)CC[C@@H]23)C[C@@H](O)C[C@@H]1O	90
2) C=C1[C@H](O)CC(=C/C=C2\CCC[C@]3(C)[C@@H]([C@H](C)CC#C[C@@H](O)C45CC6CC(CC(C6)C4)C5)CC[C@@H]23)C[C@H]1O	43
3) C=C1/C(=C\C=C2/CCC[C@]3(C)[C@@H]([C@H](C)CCCC(C)(C)O)CC[C@@H]23)C[C@@H](O)C[C@@H]1O	70

For the next question, use this compound.
Sure, the documented remaining at 24 h, 1 µM for `C=C1/C(=C\C=C2/CCC[C@]3(C)[C@@H]([C@H](C)CC#C[C@@H](O)C45CC6CC(CC(C6)C4)C5)CC[C@@H]23)C[C@@H](O)C[C@@H]1O` is 49
